Biological target: T1, Tkod-Pol wild type (family-B DNA polymerase) (Thermococcus kodakarensis, UniProt D0VWU9 1-774)
T1 sequence: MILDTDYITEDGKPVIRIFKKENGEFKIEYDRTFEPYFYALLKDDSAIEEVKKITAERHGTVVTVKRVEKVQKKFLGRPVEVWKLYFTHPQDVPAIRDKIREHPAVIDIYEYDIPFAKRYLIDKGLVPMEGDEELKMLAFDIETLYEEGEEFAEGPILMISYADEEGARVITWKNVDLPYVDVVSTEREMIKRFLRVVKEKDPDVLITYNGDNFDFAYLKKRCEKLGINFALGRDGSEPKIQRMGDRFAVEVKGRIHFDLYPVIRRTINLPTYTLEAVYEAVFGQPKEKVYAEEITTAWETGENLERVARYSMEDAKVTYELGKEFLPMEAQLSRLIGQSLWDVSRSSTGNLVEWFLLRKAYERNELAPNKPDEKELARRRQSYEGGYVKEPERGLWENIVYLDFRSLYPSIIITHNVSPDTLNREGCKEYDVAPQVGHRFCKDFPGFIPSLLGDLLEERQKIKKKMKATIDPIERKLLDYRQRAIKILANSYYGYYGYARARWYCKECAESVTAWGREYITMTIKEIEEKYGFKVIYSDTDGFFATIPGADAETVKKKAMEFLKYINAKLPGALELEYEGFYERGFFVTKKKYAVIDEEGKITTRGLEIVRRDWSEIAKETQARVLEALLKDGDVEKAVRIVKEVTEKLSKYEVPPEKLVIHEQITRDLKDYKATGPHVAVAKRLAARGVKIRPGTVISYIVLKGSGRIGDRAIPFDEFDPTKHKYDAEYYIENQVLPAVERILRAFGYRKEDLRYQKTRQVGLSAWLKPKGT
Test: fluorescence anisotropy; 20 mM Tris-HCl pH 8.5, 10 mM KCl, 10 mM (NH4)2SO4 (ionic strength 40); 10 nM Hex primer-template; rest of buffer and temperature not in material
Conditions: protein: recombinant; label: 5'-hexachlorofluorescein on primer (strand 1); 5' overhang 20 nt on template (strand 2)
Experimental readout: Kd
State the value, then name its unit.

[in] Find the recorded Kd belonging to Hex primer-template (24/44) (dsDNA) DNA 1: GGGGATCCTCTAGAGTCGACCTGC DNA 2: GGAGACAAGCTTGCTTGCCAGCAGGTCGACTCTAGAGGATCCCC and report it.
[out] 0.276 µM
